target: UniProt Q13946
Sequence (Q13946 whole entry, species assumed): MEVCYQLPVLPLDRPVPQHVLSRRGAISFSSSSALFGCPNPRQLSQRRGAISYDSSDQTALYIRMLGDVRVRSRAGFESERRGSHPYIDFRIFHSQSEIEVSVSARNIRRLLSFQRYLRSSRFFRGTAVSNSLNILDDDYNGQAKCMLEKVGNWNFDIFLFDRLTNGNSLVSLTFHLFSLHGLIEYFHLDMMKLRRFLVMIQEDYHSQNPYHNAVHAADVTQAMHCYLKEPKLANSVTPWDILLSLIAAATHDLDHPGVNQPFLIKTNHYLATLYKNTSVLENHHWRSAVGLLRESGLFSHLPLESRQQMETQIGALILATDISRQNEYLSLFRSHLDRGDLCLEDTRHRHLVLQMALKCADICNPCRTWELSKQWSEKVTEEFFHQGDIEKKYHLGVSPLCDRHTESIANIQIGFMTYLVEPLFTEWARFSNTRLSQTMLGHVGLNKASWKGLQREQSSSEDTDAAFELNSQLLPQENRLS
Metric: pIC50
Friendly reminder that pIC50 comes from taking -log10 of the concentration in mol/L.

Q. What value of pIC50 on UniProt Q13946 does `O=C1Nc2c(Cl)cc(-c3ccc(C(=O)N4CCN(c5ncccn5)CC4)cc3)cc2C2(CCCCC2)N1` have?
A. 8.10

Q. Reported pIC50 for UniProt Q13946, given `CN1CCN(C(=O)c2ccc(-c3cc(Cl)c4c(c3)C3(CCCCC3)NC(=O)N4)cc2)CC1` ?
A. 7.74

Q. Lab note: need pIC50 with UniProt Q13946 for entry `O=C1Nc2c(Cl)cc(-c3ccc(C(=O)N4CCN(CCOCCO)CC4)cc3)cc2C2(CCCCC2)N1` , please look it up.
A. 7.89

Q. Hi! What's the reported pIC50 for `O=C1Nc2c(Cl)cc(-c3ccccc3)cc2C2(CCCCC2)N1` on UniProt Q13946?
A. 7.80

Ref: patent US7214676B2
